Biological target: CDK2 (Homo sapiens, UniProt P24941)
Construct: endogenous in cells; host or cells: MKN1 cells
Assay: CDK2 degradation in MKN1 cells (AlphaLISA)
Type: cell-based
Conditions: 14 h incubation
Endpoint Label: CDK2 degradation 14 h: Average Dmax %

Illustrative cases are given below, each with its answer.
1. Cc1cc(S(=O)(=O)N2CC3(CCC(CN4CCN(c5ccc6c(c5F)n(C)c(=O)n6C5CCC(=O)NC5=O)CC4)CC3)C2)ccc1Nc1ncc2cc(Cl)c(=O)n(C3CCCC3)c2n1 (stereo not drawn)    D (D (<25%))
2. Cc1cc(S(=O)(=O)N2CCC(CN(C)C3CCN(c4cccc5c4n(C)c(=O)n5C4CCC(=O)NC4=O)CC3)CC2)ccc1Nc1ncc2cc(Cl)c(=O)n(C3CCCC34CC4)c2n1 (stereo not drawn)    A (A (>75% o))
3. Cc1cc(S(=O)(=O)CCCO[C@H]2CC[C@H](CN3CCC(c4ccc5c(c4)n(C4CCC(=O)NC4=O)c(=O)n5C)CC3)CC2)ccc1Nc1ncc2cc(C(F)F)c(=O)n(C(C)C)c2n1 (stereo partly drawn)    B (B (>50% -75%))
4. Cc1cc(S(=O)(=O)NCCOCCOCCOCCOCCCc2ccc3c(c2)n(C)c(=O)n3C2CCC(=O)NC2=O)ccc1Nc1ncc2c(n1)N(C1CCCC1)C(=O)C21CC1 (stereo not drawn)    A (A (>75% o))
5. Cc1cc(S(=O)(=O)NC2CCC(CN3CCN(c4ccc5c(c4F)n(C)c(=O)n5C4CCC(=O)NC4=O)CC3)CC2)ccc1Nc1ncc(C(F)(F)F)c(N2CCCC(C)(O)C2)n1 (stereo not drawn)    A (A (>75% o))

Consider the compound Cc1cc(S(=O)(=O)C2CC3(CCN(CC4CCN(c5cccc6c5n(C)c(=O)n6C5CCC(=O)NC5=O)CC4)CC3)C2)ccc1Nc1ncc2cc(Cl)c(=O)n(C(C)C(C)(C)O)c2n1 (stereo not drawn) and give its measured CDK2 degradation 14 h: Average Dmax %.
D (D (<25%))

GET /values?readout=CDK2 degradation 14 h: Average Dmax %&item= Cc1cc(S(=O)(=O)NCCOCCOCCCc2ccc3c(c2)n(C)c(=O)n3C2CCC(=O)NC2=O)ccc1Nc1ncc2ccc(=O)n(C3CCCC3)c2n1 (stereo not drawn)
A (A (>75% o))

Using the record for Cc1cc(S(=O)(=O)N2CCC(CN(C)C3CCN(c4cccc5c4n(C)c(=O)n5C4CCC(=O)NC4=O)CC3)CC2)ccc1Nc1ncc2cc(Cl)c(=O)n(C(C)C)c2n1 (stereo not drawn) , report its CDK2 degradation 14 h: Average Dmax %.
A (A (>75% o))

Sample Cc1cc(S(=O)(=O)NCCOCCOCCOCCOCCCc2ccc3c(c2)n(C)c(=O)n3C2CCC(=O)NC2=O)ccc1Nc1ncc2cc(C(F)F)c(=O)n(C3CCCC3(C)O)c2n1 (stereo not drawn) — what was its CDK2 degradation 14 h: Average Dmax %?
A (A (>75% o))

Requested field: CDK2 degradation 14 h: Average Dmax %. Item: Cc1cc(S(=O)(=O)N2CCC(CCN3CCN(c4ccc5c(c4F)n(C)c(=O)n5C4CCC(=O)NC4=O)CC3)CC2)ccc1Nc1ncc2ccc(=O)n(C3CCCC3)c2n1 (stereo not drawn)
A (A (>75% o))

So what's the measured CDK2 degradation 14 h: Average Dmax % for this one? Cc1cc(S(=O)(=O)NC2CC(N3CCN(CC4CCN(c5ccc(C6CCC(=O)NC6=O)cc5)CC4)CC3)C2)ccc1Nc1ncc(C(F)(F)F)c(N2CCCC(C)(O)C2)n1 (stereo not drawn)
A (A (>75% o))

Give its CDK2 degradation 14 h: Average Dmax % value. Item: Cc1cc(S(=O)(=O)NCCOC2CCC(CN3CCC(c4ccc5c(c4)n(C)c(=O)n5C4CCC(=O)NC4=O)CC3)CC2)ccc1Nc1ncc2ccc(=O)n(C3CCCC3)c2n1 (stereo not drawn)
A (A (>75% o))

What CDK2 degradation 14 h: Average Dmax % value was documented for this compound, Cc1cc(S(=O)(=O)NCCO[C@H]2CC[C@H](CN3CCC(c4ccc5c(c4)n(C)c(=O)n5C4CCC(=O)NC4=O)CC3)CC2)ccc1Nc1ncc2cc(Cl)c(=O)n(C(C)C)c2n1 (stereo partly drawn) ?
A (A (>75% o))

Dear colleague, I am looking for the recorded CDK2 degradation 14 h: Average Dmax % of the following compound: Cc1cc(S(=O)(=O)NC2CCC(CN3CCN(c4cc(F)cc(NC5CCC(=O)NC5=O)c4)CC3)CC2)ccc1Nc1ncc(C(F)(F)F)c(N2CCCC(C)(O)C2)n1 (stereo not drawn) [I-1144]
A (A (>75% o))

Query: CDK2 degradation 14 h: Average Dmax %; subject: CC1CC(NS(=O)(=O)c2ccc(Nc3ncc(C(F)(F)F)c(N4CCCC(C)(O)C4)n3)c(F)c2)CCN1CC1CCN(c2ccc(C3CCC(=O)NC3=O)c(F)c2)CC1 (stereo not drawn) [I-1059]
A (A (>75% o))

Given the compound `Cc1cc(S(=O)(=O)N2CCC(CN(C)C3CCN(c4cccn5c(N6CCC(=O)NC6=O)cnc45)CC3)CC2)ccc1Nc1ncc2cc(Cl)c(=O)n(C3CCCC3)c2n1` , what is its reported CDK2 degradation 14 h: Average Dmax %?
B (B (>50% -75%))

Given the entry Cc1cc(S(=O)(=O)C2CC3(CCN(CCN4CCN(c5ccc6c(c5F)n(C)c(=O)n6C5CCC(=O)NC5=O)CC4)CC3)C2)ccc1Nc1ncc2cc(Cl)c(=O)n(C3CCCC3)c2n1 (stereo not drawn) , report its measured CDK2 degradation 14 h: Average Dmax %.
B (B (>50% -75%))

# input compound: Cc1cc(S(=O)(=O)NCCO[C@H]2CC[C@H](CN3CCC(c4ccc5c(c4)n(C)c(=O)n5C4CCC(=O)NC4=O)CC3)CC2)ccc1Nc1ncc2cc(Cl)c(=O)n(C3CCCC34CC4)c2n1 (stereo partly drawn) ; wanted: its CDK2 degradation 14 h: Average Dmax %
A (A (>75% o))

Which CDK2 degradation 14 h: Average Dmax % is reported for this compound? CC1(O)CCCN(c2nc(Nc3ccc(S(=O)(=O)NC4CCC(CN5CCN(c6ccc(C7CCC(=O)NC7=O)c(F)c6)CC5)CC4)cc3C(F)F)ncc2C(F)(F)F)C1 (stereo not drawn)
A (A (>75% o))

Fill blank: measured CDK2 degradation 14 h: Average Dmax % of the compound CC1(O)CCCN(c2nc(Nc3ccc(S(=O)(=O)NC4CCC(CN5CCN(c6ccc(C7CCC(=O)NC7=O)c(F)c6)CC5)CC4)cc3F)ncc2C(F)(F)F)C1 (stereo not drawn) is ____.
A (A (>75% o))

Can you look up the measured CDK2 degradation 14 h: Average Dmax % of Cc1cc(S(=O)(=O)NCCOCCOCCOCCOCCCc2ccc3c(c2)n(C)c(=O)n3C2CCC(=O)NC2=O)ccc1Nc1ncc2c(C)c(Br)c(=O)n(C3CCCC3)c2n1 (stereo not drawn) for me?
B (B (>50% -75%))
